target: APOL1 G1 (Homo sapiens, UniProt O14791, I384M/S342G); experiment: Trypanosoma brucei brucei Lysis Assay Using APOL1 Recombinant Protein (AlamarBlue viability readout); format: cell-based; conditions: Trypanosome Assay; IP50 = IC50 for cell proliferation; read-out: Trypanosome Assay IP50
Sequence (O14791 28-398 S342G/I384M): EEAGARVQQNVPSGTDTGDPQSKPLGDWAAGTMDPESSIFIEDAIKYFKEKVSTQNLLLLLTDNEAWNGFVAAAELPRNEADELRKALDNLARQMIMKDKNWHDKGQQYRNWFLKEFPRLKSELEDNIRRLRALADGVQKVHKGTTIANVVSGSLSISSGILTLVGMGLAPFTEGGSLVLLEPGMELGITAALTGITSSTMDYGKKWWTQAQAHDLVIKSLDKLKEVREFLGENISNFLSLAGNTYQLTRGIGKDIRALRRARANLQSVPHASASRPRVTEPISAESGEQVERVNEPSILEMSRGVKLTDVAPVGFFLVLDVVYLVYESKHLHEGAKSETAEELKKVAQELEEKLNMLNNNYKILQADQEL
readout.kind: IC50

>  <molecule>
C[C@H]1C[C@@]2(C[C@@H](c3cccc(C(N)=O)c3)N1)OCCc1cc(Cl)sc12 (racemic)

>  <measured.on>
APOL1 G1 (Homo sapiens, UniProt O14791, I384M/S342G)

>  <readout.kind>
IC50

>  <test.value>
50 to 500 nM

$$$$
>  <molecule>
C[C@H]1C[C@@]2(C[C@@H](c3cn(C)nn3)N1)OC[C@H](O)c1cc(C(F)(F)F)sc12

>  <measured.on>
APOL1 G1 (Homo sapiens, UniProt O14791, I384M/S342G)

>  <readout.kind>
IC50

>  <test.value>
< 50 nM

$$$$
>  <molecule>
COc1nn(C)cc1[C@@H]1C[C@]2(C[C@H](C)N1)OCCc1cc(Cl)sc12 (racemic)

>  <measured.on>
APOL1 G1 (Homo sapiens, UniProt O14791, I384M/S342G)

>  <readout.kind>
IC50

>  <test.value>
> 500 nM

$$$$
>  <molecule>
CC(C)C1CC2(CC(c3cn(C)nn3)N1)OCCc1cc(Cl)sc12 (centres unmarked)

>  <measured.on>
APOL1 G1 (Homo sapiens, UniProt O14791, I384M/S342G)

>  <readout.kind>
IC50

>  <test.value>
50 to 500 nM

$$$$
>  <molecule>
C[C@H]1C[C@@]2(C[C@@H](c3ncnn3C)N1)OCCc1cc(Cl)sc12 (racemic)

>  <measured.on>
APOL1 G1 (Homo sapiens, UniProt O14791, I384M/S342G)

>  <readout.kind>
IC50

>  <test.value>
> 500 nM

$$$$
>  <molecule>
Cn1cc(C2CC3(CC(C4CCC4)N2)OCCc2cc(C(F)(F)F)sc23)nn1 (centres unmarked)

>  <measured.on>
APOL1 G1 (Homo sapiens, UniProt O14791, I384M/S342G)

>  <readout.kind>
IC50

>  <test.value>
50 to 500 nM

$$$$
>  <molecule>
C[C@H]1C[C@@]2(C[C@@H](c3cn(C)nn3)N1)OCCc1cc(C(F)(F)F)sc12

>  <measured.on>
APOL1 G1 (Homo sapiens, UniProt O14791, I384M/S342G)

>  <readout.kind>
IC50

>  <test.value>
< 50 nM

$$$$
>  <molecule>
Cc1nc([C@@H]2C[C@]3(C[C@H](C)N2)OCCc2cc(Cl)sc23)[nH]c1C (racemic)

>  <measured.on>
APOL1 G1 (Homo sapiens, UniProt O14791, I384M/S342G)

>  <readout.kind>
IC50

>  <test.value>
> 500 nM

$$$$

###

target: APOL1 G1 (Homo sapiens, UniProt O14791, I384M/S342G); assay: Trypanosoma brucei brucei Lysis Assay Using APOL1 Recombinant Protein (AlamarBlue viability readout); type: cell-based
pIC50: −log10 of the molar value.

>  <compound>
CC1CC2(CC(c3ccncc3)N1)OCCc1cc(Cl)sc12 (stereo not shown) [Compound 30]

>  <pIC50>
> 7.30

$$$$
